- Species: Oryctolagus cuniculus
- methodNotes: Inhibition of Protein phosphatase 2A1 (PP2A1) at 0.1 mM
Please note: 1.0 applies when inhibition is 5% or greater, and 0.0 applies otherwise.

Solved cases (3 shown):
CC(=O)OCC1=CC2OC1C1C(=O)OC(=O)C21 (configuration not stated) ... 1.0
C[C@@]12C(=O)OC(=O)[C@]1(C)C1CCC2O1 ... 1.0
CC(=O)OCC1CC2OC1C1C(=O)OC(=O)C21 (configuration not stated) ... 1.0

Ask: hey, is inhibition for this one >= 5%? CC12CCC(C)(O1)C(C(=O)O)C2C(=O)O (configuration not stated)
Reply: 0.0

====

- Species on record: Oryctolagus cuniculus
- methodNotes: Inhibition of Protein phosphatase 2A1 (PP2A1) at 1 mM
parameter: inhibition (%)
Answers are plain numbers, in %.

O=C1OC(=O)C2C3C=CC(O3)C12 (centres undefined) ... 95

Provide inhibition values for the following items, in order.
1. CC(=O)OCC12CCC(O1)C1C(=O)OC(=O)C12 (centres undefined)
2. CC(=O)OCC1=CC2OC1C1C(=O)OC(=O)C21 (centres undefined)
3. CC(=O)OCC12C=CC(O1)C1C(=O)OC(=O)C12 (centres undefined)
4. O=C1OC(=O)C2C1C1C=CC2(CO)O1 (centres undefined)
5. CC(=O)OCC12C=CC(O1)C(C(=O)O)C2C(=O)O (centres undefined)

Reply:
50
98
40
12
25

Provide inhibition values for the following items, in order.
1. CC12CCC(C)(O1)C(C(=O)O)C2C(=O)O (centres undefined)
2. O=C1OC(=O)C2C3OC(CC3COC3CCCCC3)C12 (centres undefined)
3. CC(=O)OCC1CC2OC1C1C(=O)OC(=O)C21 (centres undefined)
4. O=C(O)C1C2CCC3(COC(=O)C13)O2 (centres undefined)
5. O=C1OC(=O)C2C3CCC(O3)C12 (centres undefined)

Reply:
1: 2; 2: 100; 3: 98; 4: 8; 5: 100

Provide inhibition values for the following items, in order.
1. O=C1OC(=O)C2C3OC(C=C3COC3CCCCC3)C12 (centres undefined)
2. CC(=O)OCC1=CC2OC1C(C(=O)O)C2C(=O)O (centres undefined)
3. C[C@@]12C(=O)OC(=O)[C@]1(C)C1CCC2O1

Reply:
100
90
98

====

So I've got a bunch of compounds here, and I need their inhibition values.
- Species: Oryctolagus cuniculus
- methodNotes: Inhibition of Protein phosphatase 1 at 0.1 mM
Answers are plain numbers, in %.

Some compounds with recorded inhibition:
O=C(O)C1C2CCC3(COC(=O)C13)O2 (centres undefined) ... 9
CC12CCC(C)(O1)C(C(=O)O)C2C(=O)O (centres undefined) ... 0
CC(=O)OCC1CC2OC1C1C(=O)OC(=O)C21 (centres undefined) ... 90
O=C1OC(=O)C2C3CCC(O3)C12 (centres undefined) ... 95
CC(=O)OCC12C=CC(O1)C(C(=O)O)C2C(=O)O (centres undefined) ... 5

Provide inhibition values for the following items, in order.
1. CC(=O)OCC12C=CC(O1)C1C(=O)OC(=O)C12 (centres undefined)
2. O=C1OC(=O)C2C1C1C=CC2(CO)O1 (centres undefined)
3. O=C1OC(=O)C2C3OC(C=C3COC3CCCCC3)C12 (centres undefined)
4. CC(=O)OCC1=CC2OC1C1C(=O)OC(=O)C21 (centres undefined)
5. C[C@@]12C(=O)OC(=O)[C@]1(C)C1CCC2O1

Reply:
[5, 8, 50, 59, 85]

Provide inhibition values for the following items, in order.
1. O=C1OC(=O)C2C3OC(CC3COC3CCCCC3)C12 (centres undefined)
2. O=C1OC(=O)C2C3C=CC(O3)C12 (centres undefined)
3. CC(=O)OCC12CCC(O1)C1C(=O)OC(=O)C12 (centres undefined)

Reply:
[70, 95, 20]

Ask: inhibition for CC(=O)OCC1=CC2OC1C(C(=O)O)C2C(=O)O (centres undefined) ?
Reply: 50
